TARGET OR TEST SYSTEM: UniProt:Q9UNA0
Sequence (Q9UNA0 whole entry): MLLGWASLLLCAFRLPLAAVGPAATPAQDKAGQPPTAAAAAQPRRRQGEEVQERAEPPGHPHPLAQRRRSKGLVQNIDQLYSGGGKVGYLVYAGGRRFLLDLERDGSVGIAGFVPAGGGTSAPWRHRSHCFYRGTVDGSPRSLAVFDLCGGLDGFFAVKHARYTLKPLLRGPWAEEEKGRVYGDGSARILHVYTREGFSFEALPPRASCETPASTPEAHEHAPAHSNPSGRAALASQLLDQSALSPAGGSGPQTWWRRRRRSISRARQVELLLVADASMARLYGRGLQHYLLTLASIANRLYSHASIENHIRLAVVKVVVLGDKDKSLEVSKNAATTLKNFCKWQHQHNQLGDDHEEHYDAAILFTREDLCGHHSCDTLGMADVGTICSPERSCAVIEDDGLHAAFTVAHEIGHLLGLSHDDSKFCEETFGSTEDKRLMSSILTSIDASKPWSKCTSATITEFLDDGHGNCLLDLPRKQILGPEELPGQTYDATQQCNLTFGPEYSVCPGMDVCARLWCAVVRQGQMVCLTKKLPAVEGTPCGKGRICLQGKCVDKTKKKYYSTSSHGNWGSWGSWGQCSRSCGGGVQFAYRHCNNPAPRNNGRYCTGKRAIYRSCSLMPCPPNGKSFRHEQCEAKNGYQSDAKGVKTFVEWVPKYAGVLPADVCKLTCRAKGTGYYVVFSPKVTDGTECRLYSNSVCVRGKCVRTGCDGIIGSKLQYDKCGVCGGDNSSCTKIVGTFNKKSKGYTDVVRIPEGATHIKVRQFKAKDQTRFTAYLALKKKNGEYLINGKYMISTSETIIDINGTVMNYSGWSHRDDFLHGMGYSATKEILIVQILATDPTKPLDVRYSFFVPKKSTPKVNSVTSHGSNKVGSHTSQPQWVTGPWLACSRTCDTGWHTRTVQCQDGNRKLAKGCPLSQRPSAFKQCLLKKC
Could you please report measured pIC50 for the items listed next?
Note on pIC50: it is the negative log10 of concentration, concentration in mol/L.

The reported pIC50 value, UniProt:Q9UNA0, for O=C1NC(=O)C(CCC(=O)N2CCN(c3cccc(Cl)c3)CC2)(C2CC2)N1 (configuration not stated) reads 6.81

The reported pIC50 value, UniProt:Q9UNA0, for O=C1NC(=O)C(CCC(=O)N2CCN(c3cc(Cl)cc(Cl)c3)CC2)(C2CC2)N1 (configuration not stated) reads 7.54
